Reference source: PubChem BioAssay (EPA / NIEHS)

- target system: Peroxisome proliferator-activated receptor gamma (Homo sapiens)
- experimental protocol: ATG_PPARg_TRANS: Attagene TRANS-FACTORIAL HepG2 Assay for human Peroxisome Proliferator-activated Receptor-gamma (PPARg) (AID 2283007)
Inconclusive results are not listed. Active and inactive are the calls of the source. The calls were made as follows: active = hit-call score of the fitted dose curve at least 0.9, where 1 is the maximum; inconclusive = response in the unintended direction; inactive = score below 0.9.
Classes used: 1.0 for active, 0.0 for inactive

molecule | qualitative label
CCCCCCC(C)OC(=O)CCCCC(=O)OC(C)CCCCCC (configuration not stated) | 0.0
CC(C)=CCCC(C)CCOC(=O)C(C)C (configuration not stated) | 0.0
O=S(=O)(O)c1ccc2ccccc2c1 | 0.0
CCCCOc1ccc(N)cc1 | 0.0
C=CC(=O)OCC(F)(F)C(F)(F)C(F)(F)C(F)(F)C(F)(F)C(F)(F)C(F)(F)F | 0.0
CC(=O)Nc1ccc(N=Nc2cc(C)ccc2O)cc1 | 1.0
CC(C)(C)c1ccc(OC2CCCCC2O)cc1 (configuration not stated) | 1.0
CC(C)(C)C(=O)CC(=O)C(F)(F)C(F)(F)C(F)(F)F | 0.0
FC(F)(F)C(F)(F)C(F)(F)C(F)(F)C(F)(F)C(F)(F)C(F)(F)C(F)(F)F | 0.0
C=CC(F)(F)C(F)(F)C(F)(F)C(F)(F)C(F)(F)C(F)(F)C(F)(F)C(F)(F)F | 0.0
COC(OC(C)=O)c1ccccc1 (configuration not stated) | 0.0
Cc1cc(C)cc(O)c1 | 0.0
O=C(O)C(F)(F)C(F)(F)C(F)(F)F | 0.0
CCc1ccc(C(c2ccc(CC)cc2)C(Cl)Cl)cc1 | 0.0
O=C(O)C(F)(F)C(F)(F)C(F)(F)C(F)(F)F | 0.0
CC/C=C\CCOC(=O)c1ccccc1 | 0.0
C=C(C)C(=O)OCC(F)(F)C(F)(F)C(F)(F)F | 0.0
OC[C@@H](O)[C@@H](O)[C@H](O)[C@@H](O)CO | 0.0
O=C(O)C(F)(OC(F)(F)C(F)(OC(F)(F)C(F)(F)C(F)(F)F)C(F)(F)F)C(F)(F)F (configuration not stated) | 0.0
CCN(CC)c1ccc2c(C)cc(=O)oc2c1 | 1.0
FC(F)(Br)C(F)(F)C(F)(F)C(F)(F)C(F)(F)C(F)(F)Br | 0.0
Cc1ccc(S(=O)(=O)OCC(F)(F)C(F)(F)C(F)(F)C(F)(F)C(F)(F)C(F)F)cc1 | 0.0
FC(F)(F)C(F)(F)C(F)(F)C(F)(F)C(F)(F)C(F)(F)CCS | 0.0
CCCCCCCCC(F)(F)C(F)(F)C(F)(F)C(F)(F)C(F)(F)C(F)(F)F | 0.0
FC(F)(F)C(F)(F)C(F)(F)C(F)(F)C(F)(F)CCI | 1.0
O=C(O)C(F)(F)C(F)(F)OC(F)(F)F | 0.0
C=CC(=O)OCC(F)(F)C(F)(F)C(F)(F)C(F)(F)COC(=O)C=C | 1.0
[Co] | 0.0
c1ccc(B(c2ccccc2)c2ccccc2)cc1 | 1.0
O=S(=O)(OCCOC(F)(F)F)C(F)(F)F | 0.0
C=C(C)C(=O)OCC(F)(F)C(F)(F)C(F)(F)C(F)(F)C(F)(F)C(F)(F)C(F)(F)F | 0.0
O=C(O)C(F)(F)C(F)(F)C(F)F | 0.0

====

- Read-out: Intercellular Adhesion Molecule 1 (ICAM1), ICAM1 (gene 3383)
- experimental protocol: BSK_3C_ICAM1: BioMAP Diversity Plus: 3C Assay for Intercellular Adhesion Molecule 1 (ICAM1) Biomarker Activity (AID 2283003)
- cond: primary human endothelial cells (HUVEC); actives raise or lower the signal
The source made the active and inactive calls. How the source made its calls: active means hit-call score of the fitted dose curve at least 0.9, where 1 is the maximum; inactive means score below 0.9.
Classes used: active, inactive

compound | qualitative label
FC(F)(F)C(F)(F)C(F)(F)CI | inactive
O=C(O)C(F)(F)C(F)(F)C(F)(F)C(F)(F)C(F)(F)C(F)(F)C(F)(F)C(F)(F)C(F)(F)C(F)F | inactive
CO[Si](OC)(c1ccccc1)c1ccccc1 | inactive
O=C(O)C(F)(F)C(F)(F)C(F)(F)F | inactive
C=CC(F)(F)C(F)(F)C(F)(F)C(F)(F)C(F)(F)C(F)(F)C(F)(F)C(F)(F)C=C | inactive
C#C[C@]1(O)CC[C@H]2[C@@H]3CCc4cc(OC)ccc4[C@H]3CC[C@@]21C | inactive
N=C(N)C(F)(F)C(F)(F)C(F)(F)C(F)(F)C(F)(F)C(F)(F)C(F)(F)F | inactive
CC(CCl)OP(=O)(OC(C)CCl)OC(C)CCl (stereo not given) | inactive
CCCCCCCCCCCCCCCC[N+](C)(C)Cc1ccccc1 | active
O=C(O)C(F)(F)C(F)(F)C(F)(F)C(F)(F)C(F)(F)C(F)(F)C(F)(F)C(F)(F)C(F)(F)C(F)(F)C(F)(F)C(F)(F)F | inactive

====

- Read-out: Tissue Factor, F3 (gene 2152)
- experimental protocol: BSK_CASM3C_TissueFactor: BioMAP Diversity Plus: CASM3C Assay for Tissue Factor Biomarker Activity (AID 2283052);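 also: cell surface tissue factor protein level read by ELISA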
- cond: primary human coronary artery smooth muscle cells; actives raise or lower the signal
Calls of active or inactive are those of the source. The calls were made as follows: active = hit-call score of the fitted dose curve at least 0.9, where 1 is the maximum; inactive = score below 0.9.
Classes used: active, inactive

molecule | qualitative label
C=CC/C=C/C/C=C/C/C=C/C | inactive
NC(=O)C(F)(F)C(F)(F)C(F)(F)C(F)(F)F | inactive
OCC(F)(F)C(F)(F)C(F)(F)C(F)F | inactive
CC(C)(C)C(=O)CC(=O)C(F)(F)C(F)(F)C(F)(F)F | inactive
Nc1ccc([N+](=O)[O-])cc1O | inactive
COC(=O)CCC(F)(F)C(F)(F)C(F)(F)C(F)(F)F | inactive
C=CC(F)(F)C(F)(F)C(F)(F)C(F)(F)C(F)(F)C(F)(F)C(F)(F)C(F)(F)F | inactive
CCCCOCCOCCOC(=O)CCCCC(=O)OCCOCCOCCCC | inactive
O=C(O)C(F)(F)C(F)(F)C(F)(F)C(F)(F)C(F)(F)C(F)(F)C(F)(F)C(F)(F)C(F)(F)C(F)F | inactive
FC(F)(F)C(F)(F)C(F)(F)CI | inactive
N=C(N)C(F)(F)C(F)(F)C(F)(F)C(F)(F)C(F)(F)C(F)(F)C(F)(F)F | inactive
CCCCCCCOC(=O)c1ccccc1C(=O)OCCCCCCC | inactive
C=CC(F)(F)C(F)(F)C(F)(F)C(F)(F)C(F)(F)C(F)(F)C(F)(F)C(F)(F)C=C | inactive
C=C(C)C(=O)OCC(F)(F)C(F)(F)C(F)(F)F | inactive
CC(CCl)OP(=O)(OC(C)CCl)OC(C)CCl (stereo not given) | inactive
CC(=O)Nc1ccc(N=Nc2cc(C)ccc2O)cc1 | inactive
O=S(=O)(O)C(F)(F)C(F)(F)C(F)(F)C(F)(F)C(F)(F)C(F)(F)C(F)(F)F | inactive
CCCCCCC(C)OC(=O)CCCCC(=O)OC(C)CCCCCC (stereo not given) | inactive
O=C(O)C(F)(F)C(F)(F)C(F)(F)F | inactive
CCCCCCOC(=O)c1ccccc1O | inactive
O=C(O)C(F)(F)C(F)(F)C(F)(F)C(F)(F)C(F)(F)C(F)(F)C(F)(F)C(F)(F)C(F)(F)C(F)(F)C(F)(F)C(F)(F)C(F)(F)F | inactive
OCCCC(F)(F)C(F)(F)C(F)(F)F | inactive
FC(F)(F)C(F)(F)C(F)(F)C(F)(F)C(F)(F)CCI | inactive
O=C(O)C(F)(F)C(F)(F)OC(F)(F)F | inactive
OCC(F)(F)C(F)(F)C(F)(F)C(F)(F)C(F)(F)C(F)(F)F | inactive
CCc1c(Br)c(Br)c(Br)c(Br)c1Br | active
FC(F)(F)C(F)(F)C(F)(F)C(F)(F)C(F)(F)C(F)(F)C(F)(F)I | inactive
O=C(O)C(F)(F)C(F)(F)F | inactive
Cc1ccc(S(=O)(=O)OCC(F)(F)C(F)(F)C(F)(F)C(F)(F)C(F)(F)C(F)F)cc1 | inactive
FC(F)(F)C(F)(F)C(F)(F)N(C(F)(F)C(F)(F)C(F)(F)F)C(F)(F)C(F)(F)C(F)(F)F | inactive
OCC(F)(F)C(F)(F)C(F)(F)F | inactive
O=C(Cl)C(F)(F)C(F)(F)C(F)(F)C(F)(F)C(F)(F)C(F)(F)C(F)(F)C(F)(F)F | inactive
C=C(C)C(=O)OCC(F)(F)C(F)(F)C(F)(F)C(F)(F)C(F)(F)C(F)(F)C(F)(F)F | inactive
FC(F)(Br)C(F)(F)C(F)(F)C(F)(F)C(F)(F)C(F)(F)Br | inactive
C=C(C)C(=O)OCCC(F)(F)C(F)(F)C(F)(F)C(F)(F)C(F)(C(F)(F)F)C(F)(F)F | inactive
FC(F)(F)C(F)(F)C(F)(F)C(F)(F)C(F)(F)C(F)(F)C(F)(F)C(F)(F)F | inactive
FC(F)(F)C(F)(F)C(F)(F)C(F)(F)C(F)(F)C(F)(F)CC1CO1 (stereo not given) | inactive
CO[Si](OC)(c1ccccc1)c1ccccc1 | active
FC1CC(F)(F)C(F)(F)C1(F)F (stereo not given) | inactive
Oc1ccc(Nc2ccccc2)cc1 | active
